B1: VENTX (parent)
chain: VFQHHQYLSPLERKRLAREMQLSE

Variants of: B1
Test Method Notes: protein stability index of a GFP-peptide fusion (GPS, HEK-293T) (PSI 1-6); higher = more stable;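 also: lentivirally expressed fusions sorted by FACS into six bins by GFP to DsRed ratio, PSI derived from sequencing read proportions per bin multiplied by bin number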
Condition Details: c terminus: a fixed tail appended
Let's look at some variants and their measured protein stability index.
Assay Readout: protein stability index

Mutant Designation: A17Y
Assay Readout: protein stability index
Assay Value: 3.02

Mutant Designation: E19R
Assay Readout: protein stability index
Assay Value: 2.38

Mutant Designation: L11H
Assay Readout: protein stability index
Assay Value: 2.77

Mutant Designation: A17I
Assay Readout: protein stability index
Assay Value: 2.36

Mutant Designation: K14Q
Assay Readout: protein stability index
Assay Value: 2.12

Mutant Designation: S23R
Assay Readout: protein stability index
Assay Value: 2.33

Mutant Designation: E19L
Assay Readout: protein stability index
Assay Value: 1.81

Mutant Designation: S23G
Assay Readout: protein stability index
Assay Value: 2.5

Mutant Designation: Q6H
Assay Readout: protein stability index
Assay Value: 3.06

Mutant Designation: L11F
Assay Readout: protein stability index
Assay Value: 2.42

Mutant Designation: F2G
Assay Readout: protein stability index
Assay Value: 3.57
